src = paper PMC10920428

target_or_test_system: homogentisate solanesyltransferase (CrHST) (Chlamydomonas reinhardtii, UniProt A1JHN0)
Sequence (A1JHN0 51-370): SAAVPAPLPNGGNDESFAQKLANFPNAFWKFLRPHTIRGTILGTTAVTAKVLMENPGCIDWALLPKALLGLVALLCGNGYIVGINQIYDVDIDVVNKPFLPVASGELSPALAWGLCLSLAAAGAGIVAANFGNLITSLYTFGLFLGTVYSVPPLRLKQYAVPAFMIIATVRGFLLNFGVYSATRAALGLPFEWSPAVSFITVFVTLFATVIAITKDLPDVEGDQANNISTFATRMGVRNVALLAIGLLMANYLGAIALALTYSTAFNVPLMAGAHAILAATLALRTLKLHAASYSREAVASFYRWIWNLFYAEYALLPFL
pIC50: −log10 of the molar value.

molecule	pIC50
Cc1cccc(C2CC2)c1Oc1nnc(Cl)cc1O [DMC, Des-Morpholinocarbony Cyclopyrimorate]	5.44
